- tgt: p110α (PI3Kα) (Homo sapiens)
- Sequence (P42336 whole entry): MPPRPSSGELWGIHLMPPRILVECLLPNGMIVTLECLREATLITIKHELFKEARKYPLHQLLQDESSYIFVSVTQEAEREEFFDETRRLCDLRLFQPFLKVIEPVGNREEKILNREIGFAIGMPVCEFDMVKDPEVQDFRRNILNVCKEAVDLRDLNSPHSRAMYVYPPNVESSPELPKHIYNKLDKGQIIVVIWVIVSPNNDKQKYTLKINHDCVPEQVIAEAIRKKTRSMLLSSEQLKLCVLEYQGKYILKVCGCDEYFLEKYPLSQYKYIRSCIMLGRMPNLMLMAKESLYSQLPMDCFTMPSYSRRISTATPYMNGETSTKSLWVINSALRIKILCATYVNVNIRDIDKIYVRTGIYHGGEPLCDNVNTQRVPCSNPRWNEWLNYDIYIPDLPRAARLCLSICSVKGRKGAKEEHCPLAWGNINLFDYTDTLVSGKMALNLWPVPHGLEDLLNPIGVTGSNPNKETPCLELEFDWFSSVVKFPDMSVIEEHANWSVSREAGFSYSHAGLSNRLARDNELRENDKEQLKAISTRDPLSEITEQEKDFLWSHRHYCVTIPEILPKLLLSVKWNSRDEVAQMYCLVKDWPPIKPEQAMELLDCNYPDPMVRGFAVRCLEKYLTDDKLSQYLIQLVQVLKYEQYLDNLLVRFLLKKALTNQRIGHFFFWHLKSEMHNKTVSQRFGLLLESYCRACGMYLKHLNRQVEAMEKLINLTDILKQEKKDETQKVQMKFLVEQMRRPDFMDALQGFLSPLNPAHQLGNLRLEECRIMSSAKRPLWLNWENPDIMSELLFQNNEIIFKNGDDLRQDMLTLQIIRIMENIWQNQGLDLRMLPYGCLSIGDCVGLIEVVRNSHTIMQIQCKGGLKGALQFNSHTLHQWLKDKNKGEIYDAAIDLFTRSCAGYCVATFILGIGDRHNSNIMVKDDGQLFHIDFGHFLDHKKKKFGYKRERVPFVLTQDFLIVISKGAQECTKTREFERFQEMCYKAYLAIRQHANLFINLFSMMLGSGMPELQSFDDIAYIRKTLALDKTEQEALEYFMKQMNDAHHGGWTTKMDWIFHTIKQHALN
- Sequence (P27986 whole entry partner): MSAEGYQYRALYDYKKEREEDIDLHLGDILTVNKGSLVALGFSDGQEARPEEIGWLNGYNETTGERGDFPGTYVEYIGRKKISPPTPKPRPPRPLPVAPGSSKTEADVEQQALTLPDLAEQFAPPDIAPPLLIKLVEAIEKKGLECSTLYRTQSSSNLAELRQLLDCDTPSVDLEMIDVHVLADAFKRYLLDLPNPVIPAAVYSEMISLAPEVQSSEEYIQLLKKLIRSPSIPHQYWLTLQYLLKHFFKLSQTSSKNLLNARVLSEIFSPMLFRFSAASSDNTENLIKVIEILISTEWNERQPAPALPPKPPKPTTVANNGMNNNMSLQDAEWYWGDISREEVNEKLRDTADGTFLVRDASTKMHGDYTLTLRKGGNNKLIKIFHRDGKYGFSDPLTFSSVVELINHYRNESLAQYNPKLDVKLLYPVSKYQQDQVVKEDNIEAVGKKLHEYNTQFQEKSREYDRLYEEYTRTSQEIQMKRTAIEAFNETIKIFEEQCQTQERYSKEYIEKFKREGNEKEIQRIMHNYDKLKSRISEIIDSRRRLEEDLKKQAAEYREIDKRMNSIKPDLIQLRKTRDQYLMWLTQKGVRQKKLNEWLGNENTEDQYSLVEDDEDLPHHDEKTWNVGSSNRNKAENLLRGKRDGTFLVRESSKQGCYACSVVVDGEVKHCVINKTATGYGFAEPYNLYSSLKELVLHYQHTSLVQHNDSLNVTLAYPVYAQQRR
- test description: LanthaScreen determination of kinetic constants (kinact, Ki) for p110α
- Assay type: binding
- recorded conditions: mean of 3 independent measurements; global fitting with KinTek; read-out: kinact PI3Kα
So I've got a bunch of compounds here, and I need their kinact values.
Output spec: scalar in s⁻¹, unitless text.

Ask: Reported kinact, compound C=CC(=O)N1CCCC[C@@H]1C(=O)NCC(=O)N1CCN(c2nc(-c3cnc(N)nc3C(F)F)nc(N3CCOCC3)n2)CC1 [Compound 21] : ____
Reply: 0.000875

Ask: Returns the measured kinact for the input compound. Input: C=CC(=O)N1CCCC[C@H]1C(=O)N(C)CC(=O)N1CCN(c2nc(-c3cnc(N)nc3C(F)F)nc(N3CCOCC3)n2)CC1 [Compound 22]
Reply: 0.000309

Ask: Would you kindly share the measured kinact for C[C@H]1COCCN1c1nc(-c2cnc(N)nc2C(F)F)nc(N2CCN(C(=O)COC[C@@H]3CN(C(=O)/C(C#N)=C\C4CC4)CCO3)CC2)n1 [Compound 43] ?
Reply: 0.0143

Ask: Which value of kinact has been reported for C=CC(=O)N1CCCC[C@H]1C(=O)NCC(=O)N1CCN(c2nc(-c3cnc(N)nc3C(F)F)nc(N3CCOCC3)n2)CC1 [Compound 20] in the records?
Reply: 0.00065

Ask: Please give the measured kinact for this compound: C=CC(=O)N1CCO[C@H](COCC(=O)N2CCN(c3nc(-c4cnc(N)nc4C(F)F)nc(N4CCOC[C@@H]4C)n3)CC2)C1 [Compound 42]
Reply: 0.000537

Ask: Item N#C/C(=C/C1CC1)C(=O)N1CC[C@@H](COCC(=O)N2CCN(c3nc(-c4cnc(N)nc4C(F)F)nc(N4CCOCC4)n3)CC2)C1 [Compound 10] has what recorded kinact?
Reply: 0.0111

====

- tgt: p110α (PI3Kα) (Homo sapiens)
- test description: LanthaScreen determination of kinetic constants (kinact, Ki) for p110α;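 note: covalent inhibition constants for p110α come from LanthaScreen data, fitted globally by numerical integration in KinTek Global Kinetic Explorer software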
- Type: binding
- recorded conditions: PI3Kα; read-out: kinact/Ki
Consider the following compounds; for each one, report its kinact/KI.
Hi! Could you send only the number? It should be in M⁻¹ s⁻¹, unit omitted.

Ask: Give its kinact/KI value. Item: "C=CC(=O)N1CC[C@@H](C(=O)N(C)CC(=O)N2CCN(c3nc(-c4cnc(N)nc4C(F)F)nc(N4CCOCC4)n3)CC2)C1"
Reply: 531000

Ask: Look up kinact/KI for this compound: "C=CC(=O)N1CCC[C@H](C(=O)NCC(=O)N2CCN(c3nc(-c4cnc(N)nc4C(F)F)nc(N4CCOCC4)n3)CC2)C1"
Reply: 151000

Ask: Suppose we examine the compound "C[C@H]1COCCN1c1nc(-c2cnc(N)nc2C(F)F)nc(N2CCN(C(=O)COC[C@H]3CN(C(=O)/C(C#N)=C\C4CC4)CCO3)CC2)n1" ; what kinact/KI value has been reported?
Reply: 1.05e+06

Ask: Reported kinact/KI, compound "N#C/C(=C/C1CC1)C(=O)N1CC[C@@H](COCC(=O)N2CCN(c3nc(-c4cnc(N)nc4C(F)F)nc(N4CCOCC4)n3)CC2)C1" : ____
Reply: 1.02e+07

Ask: Value lookup for kinact/KI; key = "C=CC(=O)N1CCO[C@@H](COCC(=O)N2CCN(c3nc(-c4cnc(N)nc4C(F)F)nc(N4CCOC[C@@H]4C)n3)CC2)C1"
Reply: 224000

Ask: What does the data say about its kinact/KI? Entry: "C=CC(=O)N1CCC[C@@H](C(=O)NCC(=O)N2CCN(c3nc(-c4cnc(N)nc4C(F)F)nc(N4CCOCC4)n3)CC2)C1"
Reply: 914000

Ask: kinact/KI lookup needed for "C=CC(=O)N1CC[C@H](C(=O)NCC(=O)N2CCN(c3nc(-c4cnc(N)nc4C(F)F)nc(N4CCOCC4)n3)CC2)C1" , thanks.
Reply: 311000

Ask: If you can, please state the reported kinact/KI value of "C=CC(=O)N1CC[C@H](COCC(=O)N2CCN(c3nc(-c4cnc(N)nc4C(F)F)nc(N4CCOC[C@@H]4C)n3)CC2)C1" .
Reply: 502000

Ask: Tell me the measured kinact/KI of "C=CC(=O)N1CCCC[C@H]1C(=O)NCC(=O)N1CCN(c2nc(-c3cnc(N)nc3C(F)F)nc(N3CCOCC3)n2)CC1" , please.
Reply: 212000

Ask: Query: kinact/KI; subject: "C=CC(=O)N1CCC[C@H](C(=O)N(C)CC(=O)N2CCN(c3nc(-c4cnc(N)nc4C(F)F)nc(N4CCOCC4)n3)CC2)C1"
Reply: 32700

Ask: Name the reported kinact/KI value associated with the compound "C=CC(=O)N1CC(C(=O)NCCC(=O)N2CCN(c3nc(-c4cnc(N)nc4C(F)F)nc(N4CCOCC4)n3)CC2)C1"
Reply: 126000

Ask: Endpoint output: kinact/KI of "C=CC(=O)N1CCCC[C@@H]1C(=O)NCC(=O)N1CCN(c2nc(-c3cnc(N)nc3C(F)F)nc(N3CCOCC3)n2)CC1" . Value?
Reply: 227000

Ask: Sample "C=CC(=O)N1CCCC[C@H]1C(=O)N(C)CC(=O)N1CCN(c2nc(-c3cnc(N)nc3C(F)F)nc(N3CCOCC3)n2)CC1" — what was its kinact/KI?
Reply: 54000

Ask: Would you kindly share the measured kinact/KI for "C=CC(=O)N1CCC[C@H](COCC(=O)N2CCN(c3nc(-c4cnc(N)nc4C(F)F)nc(N4CCOC[C@@H]4C)n3)CC2)C1" ?
Reply: 94300

Ask: I have this compound here, "C=CC(=O)N1CC[C@@H](COCC(=O)N2CCN(c3nc(-c4cnc(N)nc4C(F)F)nc(N4CCOC[C@@H]4C)n3)CC2)C1" , and I need its recorded kinact/KI.
Reply: 325000

Ask: Query (compound): "C=CC(=O)N1CC[C@H](C(=O)N(C)CC(=O)N2CCN(c3nc(-c4cnc(N)nc4C(F)F)nc(N4CCOCC4)n3)CC2)C1" ; field requested: kinact/KI
Reply: 150000

Ask: May I ask what kinact/KI has been recorded for "C=CC(=O)N1CCCC[C@@H]1C(=O)N(C)CC(=O)N1CCN(c2nc(-c3cnc(N)nc3C(F)F)nc(N3CCOCC3)n2)CC1" ?
Reply: 27200

Ask: Any idea what kinact/KI was measured for "C=CC(=O)N1CCC(COCC(=O)N2CCN(c3nc(-c4cnc(N)nc4C(F)F)nc(N4CCOCC4)n3)CC2)CC1" ?
Reply: 239000

Ask: Please give the measured kinact/KI for this compound: "C=CC(=O)N1CCO[C@H](COCC(=O)N2CCN(c3nc(-c4cnc(N)nc4C(F)F)nc(N4CCOC[C@@H]4C)n3)CC2)C1"
Reply: 75400

Ask: What value of kinact/KI has been reported for the following compound? "C=CC(=O)N1CCC[C@@H]1C(=O)NCC(=O)N1CCN(c2nc(-c3cnc(N)nc3C(F)F)nc(N3CCOCC3)n2)CC1"
Reply: 40700

Ask: Name the reported kinact/KI value associated with the compound "C=CC(=O)N1CCC[C@@H](C(=O)NCCN2CCN(c3nc(-c4cnc(N)nc4C(F)F)nc(N4CCOCC4)n3)CC2)C1"
Reply: 16300

Ask: May I ask what kinact/KI has been recorded for "C[C@H]1COCCN1c1nc(-c2cnc(N)nc2C(F)F)nc(N2CCN(C(=O)COC[C@@H]3CN(C(=O)/C(C#N)=C\C4CC4)CCO3)CC2)n1" ?
Reply: 1.04e+06

Ask: Name the reported kinact/KI value associated with the compound "C=CC(=O)N1CCC[C@H]1C(=O)NCC(=O)N1CCN(c2nc(-c3cnc(N)nc3C(F)F)nc(N3CCOCC3)n2)CC1"
Reply: 44500

Ask: Return reported kinact/KI; argument: "N#C/C(=C/C1CC1)C(=O)N1CC[C@H](COCC(=O)N2CCN(c3nc(-c4cnc(N)nc4C(F)F)nc(N4CCOCC4)n3)CC2)C1"
Reply: 9.43e+06

====

Please go through the items and note down their pKi.
Worth noting: pKi values are minus log10 of concentrations stated in mol/L.

Ask: UniProtKB P42336 / pKi / C=CC(=O)N1CC[C@@H](C(=O)NCC(=O)N2CCN(c3nc(-c4cnc(N)nc4C(F)F)nc(N4CCOCC4)n3)CC2)C1 [Compound 25] : value?
Reply: 8.27

Ask: Enter reported pKi observed with UniProtKB P42336 for C[C@H]1COCCN1c1nc(-c2cnc(N)nc2C(F)F)nc(N2CCN(C(=O)COC[C@@H]3CN(C(=O)/C(C#N)=C\C4CC4)CCO3)CC2)n1 [Compound 43]
Reply: 7.86

Ask: Quick check: pKi on UniProtKB P42336, item C=CC(=O)N1CCCC[C@@H]1C(=O)NCC(=O)N1CCN(c2nc(-c3cnc(N)nc3C(F)F)nc(N3CCOCC3)n2)CC1 [Compound 21] ?
Reply: 8.41

Ask: Query for UniProtKB P42336: what pKi does the record show for C=CC(=O)N1CCC[C@H](C(=O)N(C)CC(=O)N2CCN(c3nc(-c4cnc(N)nc4C(F)F)nc(N4CCOCC4)n3)CC2)C1 [Compound 17] ?
Reply: 8.12

Ask: Give the reported pKi for N#C/C(=C/C1CC1)C(=O)N1CC[C@H](COCC(=O)N2CCN(c3nc(-c4cnc(N)nc4C(F)F)nc(N4CCOCC4)n3)CC2)C1 [Compound 9] (system: UniProtKB P42336).
Reply: 8.95

Ask: Find the measured pKi: item C=CC(=O)N1CCC[C@@H](COCC(=O)N2CCN(c3nc(-c4cnc(N)nc4C(F)F)nc(N4CCOC[C@@H]4C)n3)CC2)C1 [Compound 1] , target or system UniProtKB P42336.
Reply: 8.57

Ask: Query the reported pKi for UniProtKB P42336; item: C=CC(=O)N1CCC[C@H](COCC(=O)N2CCN(c3nc(-c4cnc(N)nc4C(F)F)nc(N4CCOC[C@@H]4C)n3)CC2)C1 [Compound 2]
Reply: 8.56

Ask: Query the reported pKi for UniProtKB P42336; item: C=CC(=O)N1CCC[C@@H](OCCC(=O)N2CCN(c3nc(-c4cnc(N)nc4C(F)F)nc(N4CCOC[C@@H]4C)n3)CC2)C1 [Compound 5]
Reply: 8.05
